Each record here notes measured Ratio α/β.
Biological target: PKC β II (Homo sapiens)
Construct: purchased CALBIOCHEM
Sequence (P05771 other isoform, or with tags, fused parts or gaps): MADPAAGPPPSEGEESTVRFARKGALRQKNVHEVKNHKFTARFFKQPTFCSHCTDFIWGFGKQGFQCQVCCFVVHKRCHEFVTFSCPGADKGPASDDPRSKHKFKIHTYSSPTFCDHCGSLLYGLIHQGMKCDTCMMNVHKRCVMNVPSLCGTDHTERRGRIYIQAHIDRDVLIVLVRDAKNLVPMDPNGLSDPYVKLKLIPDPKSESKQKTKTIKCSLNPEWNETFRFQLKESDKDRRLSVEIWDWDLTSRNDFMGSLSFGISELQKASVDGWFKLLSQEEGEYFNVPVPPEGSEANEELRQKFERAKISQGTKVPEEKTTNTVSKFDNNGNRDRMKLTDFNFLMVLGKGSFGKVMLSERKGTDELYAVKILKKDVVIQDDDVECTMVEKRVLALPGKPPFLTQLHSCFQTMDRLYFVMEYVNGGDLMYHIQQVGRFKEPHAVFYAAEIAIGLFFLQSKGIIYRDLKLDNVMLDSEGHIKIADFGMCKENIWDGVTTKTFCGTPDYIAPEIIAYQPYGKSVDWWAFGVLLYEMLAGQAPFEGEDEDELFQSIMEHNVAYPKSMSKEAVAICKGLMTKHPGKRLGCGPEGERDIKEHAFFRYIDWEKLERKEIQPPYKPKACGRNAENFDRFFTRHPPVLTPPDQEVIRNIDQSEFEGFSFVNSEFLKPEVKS
Test: PKC enzyme assay (BIOTRAK Protein kinase C enzyme assay system, 32P-ATP phosphorylation of peptide […])
Type: biochemical
Settings: IC50 PKC α / IC50 PKC β II
Procedure: The method for determining the PKC inhibitory activity of the compound of the present invention is explained in the following. Inasmuch as PKCβII is present in greater number in intravascular cells than PKCβI, PKCβII was mainly used here to test the enzyme activity. […] The ratio of the radioactivity of the addition of the test substance to the addition of DMSO was determined, and IC50 was calculated from inhibition at each concentration.
Please respond with just the number, no unit label.

INPUT: Look up Ratio α/β for this molecule: CCN(CC)C[C@H]1CCc2c(C3=C(Nc4ccccc4)C(=O)NC3=O)c3ccccc3n2C1 [Example 4-54]
OUTPUT: 57

INPUT: Input CN1CCN(CCCCn2cc(C3=C(Nc4ccccc4)C(=O)NC3=O)c3ccccc32)CC1 [Example 2-29]
OUTPUT: 75

INPUT: # iterate: CCN(CCCn1cc(C2=C(Nc3ccccc3)C(=O)NC2=O)c2ccccc21)CCOC [Example 2-15]
OUTPUT: 77

INPUT: Try this molecule next: O=C1NC(=O)C(c2c[nH]c3ccccc23)=C1Nc1cccc(Br)c1 [Example 1-10]
OUTPUT: 37

INPUT: Now consider CN(C)C[C@H]1Cc2c(C3=C(Nc4ccc(F)cc4)C(=O)NC3=O)c3ccccc3n2C1 [Example 4-69] and answer again.
OUTPUT: 76

INPUT: Another molecule to look at: O=C1NC(=O)C(c2cn(CCCN3CCC(CO)CC3)c3ccccc23)=C1Nc1ccccc1 [Example 2-50]
OUTPUT: 47

====

In this section, each of the compounds is paired with its reported pIC50.
biological target: PKC α (Homo sapiens, UniProt P17252); construct: purchased CALBIOCHEM; test: PKC enzyme assay (BIOTRAK Protein kinase C enzyme assay system, 32P-ATP phosphorylation of peptide […]); assay type: biochemical; settings: Protein Kinase C, Human Recombinant; test substance 1 nM-10 µM; 37°C, 15 minutes; read-out: Inhibition of PKC activity IC50 PKC α
Keep it numeric: pIC50 is minus log10 of the concentration in mol/L.

A selection of reference data follows.
[[record]]
smiles_code = "Cc1cncn1CCCn1cc(C2=C(Nc3cccc(Cl)c3)C(=O)NC2=O)c2ccccc21"
target = "PKC α (Homo sapiens, UniProt P17252)"
readout_label = "pIC50"
measurement = 6.45

[[record]]
smiles_code = "O=C1NC(=O)C(c2cn(CCCn3ccnc3)c3ccccc23)=C1Nc1ccc(Br)cc1"
target = "PKC α (Homo sapiens, UniProt P17252)"
readout_label = "pIC50"
measurement = 6.04

[[record]]
smiles_code = "O=C1NC(=O)C(c2c[nH]c3ccccc23)=C1Nc1cccc(Br)c1"
target = "PKC α (Homo sapiens, UniProt P17252)"
readout_label = "pIC50"
measurement = 5.08


INPUT: Which measured pIC50 value corresponds to Cc1cccc(NC2=C(c3cn(CCCN(C)C)c4ccccc34)C(=O)NC2=O)c1 ?
OUTPUT: 6.14

INPUT: Next: Cc1nccn1CCCn1cc(C2=C(Nc3cccc(Cl)c3)C(=O)NC2=O)c2ccccc21
OUTPUT: 6.34

INPUT: Same lookup for O=C1NC(=O)C(c2cn(CCO)c3ccccc23)=C1Nc1ccccc1 , please.
OUTPUT: 5.24
